Catalogue of MEAN CORPUSCULAR VOLUME readings, one per entry.
Organism: Rattus norvegicus
assayComment: DrugMatrix - Regimen: Daily Repeat
Format: toxicity, organism-based, Sprague-Dawley
Parameters: regimen Daily Repeat, gender Male, age 6-8 weeks
details: in vivo, iv, 0 mg/kg, 72 h, tissue Blood, dose level Control, time 3 day, vehicle 100 % SALINE
outcomeMeasure: MEAN CORPUSCULAR VOLUME (fL)

{"compound": "C[N+](C)(C)CCOC(=O)CCC(=O)OCC[N+](C)(C)C.[Cl-].[Cl-] [SUCCINYLCHOLINE CHLORIDE]", "observed": 63.27}
{"compound": "N=C(N)c1ccc(OCCCCCOc2ccc(C(=N)N)cc2)cc1", "observed": 63.27}
{"compound": "O=c1[nH]c(=O)n([C@H]2C[C@H](O)[C@@H](CO)O2)cc1F", "observed": 62.3}
{"compound": "O=C(O)P(=O)(O)O", "observed": 62.25}
{"compound": "COc1cccc2c1C(=O)c1c(O)c3c(c(O)c1C2=O)C[C@@](O)(C(C)=O)C[C@@H]3O[C@H]1C[C@H](N)[C@H](O)[C@H](C)O1", "observed": 64.37}

---

Species: Rattus norvegicus
assayComment: DrugMatrix - Regimen: Daily Repeat
Type: toxicity, organism-based, Sprague-Dawley
Design: regimen Daily Repeat, gender Male, age 6-8 weeks
details: in vivo, po, 0 mg/kg, 72 h, tissue Plasma, route oral GAVAGE, dose level Control, time 3 day, vehicle .5 % CMC

{"compound": "COc1ccccc1[N+](=O)[O-]", "TOTAL PROTEIN [G/DL]": 5.88}
{"compound": "COc1cc(OC)c(C(=O)CCCN2CCCC2)c(OC)c1", "TOTAL PROTEIN [G/DL]": 5.95}
{"compound": "CCOc1nc2cccc(C(=O)O)c2n1Cc1ccc(-c2ccccc2-c2nnn[nH]2)cc1", "TOTAL PROTEIN [G/DL]": 5.93}
{"compound": "C[C@]12CC[C@@H]3c4ccc(O)cc4CC[C@H]3[C@@H]1C[C@@H](O)[C@@H]2O", "TOTAL PROTEIN [G/DL]": 5.9}
{"compound": "NC(=O)N1c2ccccc2CC(=O)c2ccccc21 [OXCARBAZEPINE]", "TOTAL PROTEIN [G/DL]": 5.77}
{"compound": "COc1ccc2c(c1OC)C(=O)O[C@@H]2[C@H]1c2c(cc3c(c2OC)OCO3)CCN1C", "TOTAL PROTEIN [G/DL]": 6.8}
{"compound": "CCCNC(=O)NS(=O)(=O)c1ccc(Cl)cc1 [CHLORPROPAMIDE]", "TOTAL PROTEIN [G/DL]": 6.87}
{"compound": "CCCCC1=NC2(CCCC2)C(=O)N1Cc1ccc(-c2ccccc2-c2nnn[nH]2)cc1", "TOTAL PROTEIN [G/DL]": 6.3}
{"compound": "C[C@@](Cc1ccc(O)c(O)c1)(NN)C(=O)O.O", "TOTAL PROTEIN [G/DL]": 5.98}

---

Catalogue of EOSINOPHIL readings, one per entry.
Organism: Rattus norvegicus
assayComment: DrugMatrix - Regimen: Daily Repeat
Format: toxicity, organism-based, Sprague-Dawley
Set-up: regimen Daily Repeat, gender Male, age 6-8 weeks
details: in vivo, po, 0 mg/kg, 72 h, tissue Blood, route oral GAVAGE, dose level Control, time 3 day, vehicle .5 % CMC
outcomeMeasure: EOSINOPHIL (%)

{"compound": "CCCCC1=NC2(CCCC2)C(=O)N1Cc1ccc(-c2ccccc2-c2nnn[nH]2)cc1", "outcomeMeasure": "EOSINOPHIL", "observed": 0.83}
{"compound": "C[C@]12CC[C@@H]3c4ccc(O)cc4CC[C@H]3[C@@H]1C[C@@H](O)[C@@H]2O", "outcomeMeasure": "EOSINOPHIL", "observed": 1}
{"compound": "COc1ccc2c(c1OC)C(=O)O[C@@H]2[C@H]1c2c(cc3c(c2OC)OCO3)CCN1C", "outcomeMeasure": "EOSINOPHIL", "observed": 0.46}
{"compound": "NC(=O)N1c2ccccc2CC(=O)c2ccccc21 [OXCARBAZEPINE]", "outcomeMeasure": "EOSINOPHIL", "observed": 0}
{"compound": "CN(C)C(=O)C(CCN1CCC(O)(c2ccc(Cl)cc2)CC1)(c1ccccc1)c1ccccc1 [LOPERAMIDE]", "outcomeMeasure": "EOSINOPHIL", "observed": 0}
{"compound": "C[C@@H]1O[C@@H](O[C@H]2C[C@@H](O)[C@]3(CO)[C@H]4[C@H](O)C[C@]5(C)[C@@H](C6=CC(=O)OC6)CC[C@]5(O)[C@@H]4CC[C@]3(O)C2)[C@H](O)[C@H](O)[C@H]1O", "outcomeMeasure": "EOSINOPHIL", "observed": 1}
{"compound": "COc1cc(OC)c(C(=O)CCCN2CCCC2)c(OC)c1", "outcomeMeasure": "EOSINOPHIL", "observed": 0}
{"compound": "CN1CCN(C2=Nc3cc(Cl)ccc3Nc3ccccc32)CC1", "outcomeMeasure": "EOSINOPHIL", "observed": 0.33}

---

Catalogue of SODIUM readings, one per entry.
Species on record: Rattus norvegicus
assayComment: DrugMatrix - Regimen: Daily Repeat
Type: toxicity, organism-based, Sprague-Dawley
Set-up: regimen Daily Repeat, gender Male, age 6-8 weeks
details: in vivo, po, 0 mg/kg, 72 h, tissue Plasma, route oral GAVAGE, dose level Control, time 3 day, vehicle .5 % CMC
outcomeMeasure: SODIUM

{"compound": "C[C@@H]1O[C@@H](O[C@H]2C[C@@H](O)[C@]3(CO)[C@H]4[C@H](O)C[C@]5(C)[C@@H](C6=CC(=O)OC6)CC[C@]5(O)[C@@H]4CC[C@]3(O)C2)[C@H](O)[C@H](O)[C@H]1O", "outcomeMeasure": "SODIUM", "observed": "143.67 MEQ/L"}
{"compound": "C#C[C@]1(O)CC[C@H]2[C@@H]3CCC4=CC(=O)CC[C@]4(C)[C@H]3CC[C@@]21C", "outcomeMeasure": "SODIUM", "observed": "140.33 MEQ/L"}
{"compound": "CN(C)C(=O)C(CCN1CCC(O)(c2ccc(Cl)cc2)CC1)(c1ccccc1)c1ccccc1 [LOPERAMIDE]", "outcomeMeasure": "SODIUM", "observed": "141.65 MEQ/L"}
{"compound": "COc1ccc2c(c1OC)C(=O)O[C@@H]2[C@H]1c2c(cc3c(c2OC)OCO3)CCN1C", "outcomeMeasure": "SODIUM", "observed": "140.33 MEQ/L"}
{"compound": "NC(=O)N1c2ccccc2CC(=O)c2ccccc21 [OXCARBAZEPINE]", "outcomeMeasure": "SODIUM", "observed": "142.22 MEQ/L"}
{"compound": "CCCNC(=O)NS(=O)(=O)c1ccc(Cl)cc1 [CHLORPROPAMIDE]", "outcomeMeasure": "SODIUM", "observed": "152.83 MEQ/L"}
{"compound": "CCn1cc(C(=O)O)c(=O)c2cc(F)c(N3CCNC(C)C3)c(F)c21 (configuration not stated)", "outcomeMeasure": "SODIUM", "observed": "152.33 MEQ/L"}
{"compound": "COc1cc(OC)c(C(=O)CCCN2CCCC2)c(OC)c1", "outcomeMeasure": "SODIUM", "observed": "141.47 MEQ/L"}
{"compound": "C[C@@](Cc1ccc(O)c(O)c1)(NN)C(=O)O.O", "outcomeMeasure": "SODIUM", "observed": "141.28 MEQ/L"}
{"compound": "C[C@H]1[C@H](NC(=O)/C(=N\\OC(C)(C)C(=O)O)c2csc(N)n2)C(=O)N1S(=O)(=O)O", "outcomeMeasure": "SODIUM", "observed": "141.28 MEQ/L"}
{"compound": "CCOc1nc2cccc(C(=O)O)c2n1Cc1ccc(-c2ccccc2-c2nnn[nH]2)cc1", "outcomeMeasure": "SODIUM", "observed": "144.1 MEQ/L"}
{"compound": "C[C@]12CC[C@@H]3c4ccc(O)cc4CC[C@H]3[C@@H]1C[C@@H](O)[C@@H]2O", "outcomeMeasure": "SODIUM", "observed": "141.02 MEQ/L"}
{"compound": "CCCCC1=NC2(CCCC2)C(=O)N1Cc1ccc(-c2ccccc2-c2nnn[nH]2)cc1", "outcomeMeasure": "SODIUM", "observed": "144.17 MEQ/L"}
{"compound": "COc1ccccc1[N+](=O)[O-]", "outcomeMeasure": "SODIUM", "observed": "141.2 MEQ/L"}
{"compound": "CN1CCN(C2=Nc3cc(Cl)ccc3Nc3ccccc32)CC1", "outcomeMeasure": "SODIUM", "observed": "152.83 MEQ/L"}
{"compound": "CN1C(=O)CN=C(c2ccccc2)c2cc([N+](=O)[O-])ccc21", "outcomeMeasure": "SODIUM", "observed": "148 MEQ/L"}
{"compound": "CCC1=C(C)CN(C(=O)NCCc2ccc(S(=O)(=O)NC(=O)N[C@H]3CC[C@H](C)CC3)cc2)C1=O [GLIMEPIRIDE]", "outcomeMeasure": "SODIUM", "observed": "141.65 MEQ/L"}
